System: HEK-Blue IL-6
Assay: Inhibition of IL-6/JAK/STAT3 signalling pathway in HEK-Blue IL-6 cells at 10 uM incubated for 16 hrs by QUANTI-blue assay relative to control
Assay type: cell-based
Conditions: Homo sapiens
MEASUREMENT LABEL: inhibition
Output should be the measured figure followed by the unit it is expressed in.

{"SMILES STRUCTURE": "CCCn1c(-c2ccc(F)cc2)nc2cc(Nc3nnc(-c4cccc(C(F)(F)F)c4)s3)c(N3CCN(C)CC3)cc21", "inhibition": "5.21%"}
{"SMILES STRUCTURE": "CCCCCn1c(-c2ccc(F)cc2)nc2cc(Nc3nnc(-c4ccccc4)s3)c(N3CCN(C)CC3)cc21", "inhibition": "83.2%"}
{"SMILES STRUCTURE": "Fc1ccc(-c2nc3cc(Nc4nnc(-c5ccc(Cl)c(C(F)(F)F)c5)s4)c(F)cc3n2C2CC2)cc1", "inhibition": "34.2%"}

Parameters: items (list). Returns: inhibition for each item.
1. Fc1ccc(Oc2cc3c(cc2Nc2nnc(-c4cccc(C(F)(F)F)c4)s2)nc(-c2ccc(F)cc2)n3C2CC2)cc1
2. CN1CCN(c2cc3c(cc2Nc2nnc(-c4ccccc4)s2)nc(-c2ccc(F)cc2)n3C2CCCC2)CC1
3. CN1CCN(c2cc3c(cc2Nc2nnc(-c4cccc(C#N)c4)s2)nc(-c2ccc(F)cc2)n3C2CC2)CC1
4. CN1CCN(c2cc3c(cc2Nc2nnc(-c4ccccc4)s2)nc(-c2cccc(F)c2)n3C2CC2)CC1

Result:
1. 6.34%
2. 77.5%
3. 83.7%
4. 56.6%

Problem: Fill in: inhibition of "CCCCn1c(-c2ccc(F)cc2)nc2cc(Nc3nnc(-c4ccccc4)s3)c(N3CCN(C)CC3)cc21" is ___
Result: 80.7%

====

Give measured solubility at 10 min for each item. Keep answers brief.
Assay: Solubility of compound in water incubated for 10 mins
Format: physicochemical
Answers are plain numbers, in µg/mL.

{"SMILES STRUCTURE": "COc1cc(-c2nnc(Nc3cc4nc(-c5ccc(F)cc5)n(C5CC5)c4cc3N3CCN(C)CC3)s2)cc(OC)c1OC", "RESULT": 5.95}

Problem: Fill in: solubility at 10 min of "CN1CCN(c2cc3c(cc2Nc2nnc(-c4ccc(C(F)(F)F)cc4)s2)nc(-c2ccc(F)cc2)n3C2CC2)CC1" is ___
Result: 1.04

====

Give measured pIC50 for each item. Keep answers brief.
Assay: Inhibition of IL-6/JAK/STAT3 signalling pathway in HEK-Blue IL-6 cells incubated for 16 hrs by QUANTI-blue assay
Type: cell-based
Conditions: Homo sapiens, HEK-Blue IL-6, 16 h
Give bare numbers, as −log10 of the molar value.

{"SMILES STRUCTURE": "COc1cc(-c2nnc(Nc3cc4nc(-c5ccc(F)cc5)n(C5CC5)c4cc3F)s2)cc(OC)c1OC", "pIC50": 5.96}

Parameters: items (list). Returns: pIC50 for each item.
1. Fc1ccc(-c2nc3cc(Nc4nnc(-c5ccccc5C(F)(F)F)s4)c(F)cc3n2C2CC2)cc1
2. CN1CCN(c2cc3c(cc2Nc2nnc(-c4ccccc4)s2)nc(-c2ccc(Cl)cc2)n3C2CC2)CC1
3. CC(C)c1ccc(-c2nnc(Nc3cc4nc(-c5ccc(F)cc5)n(C5CC5)c4cc3F)s2)cc1

Result:
1. 6.22
2. 5.53
3. 5.10
